experiment: Biodistribution studies in HEK-uPAR xenograft-bearing nude mice; details: female, CD1/nude, mouse, liver, 5 MBq (0.5 nmol), total radioactivity, 4 h p.i.; 5 MBq, 0.5 nmol; decay-corrected; average ± SD, n=3 animals
Measured tissue uptake at 4 h, listed per entry for reference.
Please give a number only; it is taken to be in %ID/g.

CC(C)C[C@H](NC(=O)[C@H](Cc1ccc(O)cc1)NC(=O)[C@@H](CCCNC(=N)N)NC(=O)[C@@H](CO)NC(=O)[C@H](Cc1ccccc1)NC(=O)[C@H](CC1CCCCC1)NC(=O)[C@H](CC(=O)O)NC(=O)CN1CCN(CC(=O)O)CCN(CC(=O)O)CCN(CC(=O)O)CC1)C(=O)N[C@@H](Cc1c[nH]c2ccccc12)C(=O)N[C@@H](CO)C(N)=O [[^177Lu]Lu-DOTA-AE105, metal not drawn, reference compound]
0.1
CC(C)C[C@H](NC(=O)[C@H](Cc1ccc(O)cc1)NC(=O)[C@@H](CCCNC(=N)N)NC(=O)[C@@H](CO)NC(=O)[C@H](Cc1ccccc1)NC(=O)[C@H](CC1CCCCC1)NC(=O)[C@H](CC(=O)O)NC(=O)[C@H](CCCCNC(=O)CCCc1ccc(I)cc1)NC(=O)CN1CCN(CC(=O)O)CCN(CC(=O)O)CCN(CC(=O)O)CC1)C(=O)N[C@@H](Cc1c[nH]c2ccccc12)C(=O)N[C@@H](CO)C(N)=O [[^177Lu]Lu-uPAR-01, metal not drawn]
6.4
CC(C)C[C@H](NC(=O)[C@H](Cc1ccc(O)cc1)NC(=O)[C@@H](CCCNC(=N)N)NC(=O)[C@@H](CO)NC(=O)[C@H](Cc1ccccc1)NC(=O)[C@H](CC1CCCCC1)NC(=O)[C@H](CC(=O)O)NC(=O)[C@H](CCCCNC(=O)CCCc1ccc(I)cc1)NC(=O)[C@@H](N)CCCCNC(=O)CN1CCN(CC(=O)O)CCN(CC(=O)O)CCN(CC(=O)O)CC1)C(=O)N[C@@H](Cc1c[nH]c2ccccc12)C(=O)N[C@@H](CO)C(N)=O [[^177Lu]Lu-uPAR-04, metal not drawn]
3.9

Entry CC(C)C[C@H](NC(=O)[C@H](Cc1ccc(O)cc1)NC(=O)[C@@H](CCCNC(=N)N)NC(=O)[C@@H](CO)NC(=O)[C@H](Cc1ccccc1)NC(=O)[C@H](CC1CCCCC1)NC(=O)[C@H](CC(=O)O)NC(=O)CCOCCOCCOCCOCCNC(=O)[C@H](CCCCNC(=O)CCCc1ccc(I)cc1)NC(=O)CN1CCN(CC(=O)O)CCN(CC(=O)O)CCN(CC(=O)O)CC1)C(=O)N[C@@H](Cc1c[nH]c2ccccc12)C(=O)N[C@@H](CO)C(N)=O [[^177Lu]Lu-uPAR-05, metal not drawn] — recorded tissue uptake at 4 h = 5.2

----------
Measured tissue uptake at 24 h, listed per entry for reference.
assay: in vivo; conditions: female, CD1/nude (Crl:CD1-Foxn nu), mouse, 0.5 nmol, total radioactivity, Blood
Please make sure the unit comes right after the number.

CC(C)C[C@H](NC(=O)[C@H](Cc1ccc(O)cc1)NC(=O)[C@@H](CCCNC(=N)N)NC(=O)[C@@H](CO)NC(=O)[C@H](Cc1ccccc1)NC(=O)[C@H](CC1CCCCC1)NC(=O)[C@H](CC(=O)O)NC(=O)[C@H](CCCCNC(=O)CCOCCOCCOCCOCCNC(=O)CCCc1ccc(I)cc1)NC(=O)CN1CCN(CC(=O)O)CCN(CC(=O)O)CCN(CC(=O)O)CC1)C(=O)N[C@@H](Cc1c[nH]c2ccccc12)C(=O)N[C@@H](CO)C(N)=O [[^177Lu]Lu-uPAR-02, metal not drawn]
6 %ID/g

Now for another entry.
Entry CC(C)C[C@H](NC(=O)[C@H](Cc1ccc(O)cc1)NC(=O)[C@@H](CCCNC(=N)N)NC(=O)[C@@H](CO)NC(=O)[C@H](Cc1ccccc1)NC(=O)[C@H](CC1CCCCC1)NC(=O)[C@H](CC(=O)O)NC(=O)[C@H](CCCCNC(=O)CCOCCOCCOCCOCCNC(=O)c1ccc(CNC(=O)CCCc2ccc(I)cc2)cc1)NC(=O)CN1CCN(CC(=O)O)CCN(CC(=O)O)CCN(CC(=O)O)CC1)C(=O)N[C@@H](Cc1c[nH]c2ccccc12)C(=O)N[C@@H](CO)C(N)=O [[^177Lu]Lu-uPAR-03, metal not drawn] — recorded tissue uptake at 24 h = 13 %ID/g
